All values here come from PubChem BioAssay (NCATS).

conditions: Ebola virus entry assay, green fluorescence channel
Potency and affinity values are given separately.
ENDPOINT LABEL: efficacy (%)
Record the value in %, omitting the unit from your answer.

Cc1cc(O)cc(C)c1Cl yielded efficacy of -20.2

Just so you know, measured efficacy for CC[N+](CC)(CCNC(=O)C(=O)NCC[N+](CC)(CC)Cc1ccccc1Cl)Cc1ccccc1Cl came out at -9.71

// recorded efficacy for N[C@@H](CCC(=O)N[C@@H](CS)C(=O)NCC(=O)O)C(=O)O : -20.9

The molecule CC(=O)OCC1=C(C(=O)O)N2C(=O)[C@@H](NC(=O)Cc3cccs3)[C@H]2SC1 showed efficacy equal to -9.53

Short answer for COc1ccc2[nH]cc(CCNC(C)=O)c2c1 : efficacy was -12.3

efficacy recorded for this molecule, O=C(O)c1[nH]n(-c2ccc(S(=O)(=O)O)cc2)c(=O)c1N=Nc1ccc(S(=O)(=O)O)cc1 , is 23

The value of efficacy measured for the molecule COC(=O)CCCCC(CCSS/C(CCO)=C(\C)N(C=O)Cc1cnc(C)nc1N)SC(C)=O (stereo not given) turned out to be -13.6

// field: efficacy; key: O=C(N/N=C/c1ccccc1O)c1ccncc1 ; value = 66.8

efficacy measured on Oc1ccc(OCc2ccccc2)cc1 = 14.9

Just so you know, measured efficacy for CC1(C)O[C@@H]2C[C@H]3[C@@H]4C[C@H](F)C5=CC(=O)C=C[C@]5(C)[C@@]4(F)[C@@H](O)C[C@]3(C)[C@]2(C(=O)CO)O1 came out at 10.5

###

System: HeLa
Assay: Primary qHTS to identify gynecologic anti-cancer compounds using libraries of approved drugs and bioactive compounds (AID 1345084); further: nearly all actives have a fitted effect of over 55% in size
Conditions: Gynecologic cancer cell panel viability, ATPlite luminescence, 48 h; series mostly up to 57.5 µM
Description: National Center for Advancing Translational Sciences [NCATS] Assay Overview: Chemotherapeutic drug responses vary from cancer to cancer and from patient to patient. […] ATPlite is a luminescence based assay reliant on the conversion of a luciferase substrate to light in the presence of ATP. As a cytotoxic compound will suppress growth and decrease the number of cells, the concentration of ATP will decrease, and less light signal will be detected in the well. […]
Inconclusive results are not listed. The source made the active and inactive calls. Calls follow the shape of the dose curve; as a rule, active = well fitted cell-killing curve with a large enough effect; inconclusive = small, poorly fitted or top-dose-only effect, or effect the other way; inactive = flat fitted curve, though single readings scatter.
The categories you may choose from are T for active, F for inactive

Prompt: Could you please tell me the result logged for O=C(O)CCCc1ccc(N(CCCl)CCCl)cc1 in this assay?
Completion: F

Prompt: I'd appreciate the recorded outcome for CCc1cc2c(s1)-n1c(C)nnc1CN=C2c1ccccc1Cl from this test.
Completion: F

Prompt: So what was the verdict on COc1cccc(C(=O)CCN[C@@H](C)[C@H](O)c2ccccc2)c1 in this test?
Completion: F

Prompt: For COC(=O)C(Cl)C(=O)OC , what call appears in the results of this test?
Completion: F

Prompt: Test call for this compound, please: O=C1CN=C(c2ccccc2)c2cc([N+](=O)[O-])ccc2N1
Completion: F

Prompt: How did this test come out for NC(=O)CS(=O)C(c1ccccc1)c1ccccc1 (stereo not given) ?
Completion: F

Prompt: Hi, do you know how CC(=O)OCC1=C(C(=O)O)N2C(=O)[C@@H](N)[C@H]2SC1 came out in this test?
Completion: F

Prompt: State the result this test recorded for COc1cc(CC(C)N)cc(OC)c1OC (stereo not given) .
Completion: T

Prompt: Recorded test outcome, item CN1CC[C@]23c4c5ccc(O)c4O[C@H]2[C@@H](O)C=C[C@H]3[C@H]1C5
Completion: F

Prompt: Please state the recorded outcome for this compound: CCC(C)(C)c1ccc(O)cc1
Completion: F

Prompt: Please let me know the test result on file for CCN(CC)C(=O)[C@@H]1C=C2c3cccc4[nH]cc(c34)C[C@H]2N(C)C1 .
Completion: F

Prompt: Outcome? O=C1c2ccccc2C(=O)C1C(=O)C(c1ccccc1)c1ccccc1
Completion: F

Prompt: # lookup: test call for C[C@]12CCC(=O)C=C1CC[C@@H]1[C@H]3CC[C@](C)(O)[C@@]3(C)CC[C@@H]12
Completion: T

Prompt: Returns: the outcome recorded for C[N+]1(CCF)[C@@H]2CC[C@H]1CC(OC(=O)C(O)(c1ccccc1)c1ccccc1)C2 (stereo not given in full) in this assay.
Completion: F

Prompt: Outcome logged for CN1CCC(O)(c2ccc(F)cc2)C(C(=O)c2ccc(F)cc2)C1 (stereo not given) in this assay:
Completion: F

Prompt: Which outcome did this test record for the compound C[C@]12CC[C@H]3[C@@H](CCC4=CC(=O)CC[C@@H]43)[C@@H]1CC[C@@H]2OC(=O)CCc1ccco1 ?
Completion: T

Prompt: Entry COP(=S)(OC)Oc1ccc(S(=O)(=O)N(C)C)cc1 : call = ?
Completion: F

Prompt: // param item: CC(C)(C)NCC(O)c1ccccc1Cl (stereo not given) ; yields the recorded call
Completion: F

Prompt: Recorded test outcome, item O=c1[nH]c2ccccc2n1C1CCNCC1
Completion: F

Prompt: Could you please tell me the result logged for CCN[C@H](C)Cc1cccc(C(F)(F)F)c1 in this assay?
Completion: F

Prompt: Hello, I am checking results. What call was entered for C[C@@H](N)[C@@H](O)c1ccccc1 ?
Completion: F

Prompt: Which outcome did this test record for the compound CC(C)N(CCC(C(N)=O)(c1ccccc1)c1ccccn1)C(C)C (stereo not given) ?
Completion: F

Prompt: What outcome does the record of this test show for Nc1ccc([As](=O)(O)O)cc1 ?
Completion: F

Prompt: Which result was noted for this compound in the test: CC[N+]1(CC)CCC(OC(=O)C(O)(c2ccccc2)c2ccccc2)C1 (stereo not given)
Completion: F

Prompt: Kindly provide the recorded test outcome for the following compound: c1ccc(N2CCNCC2)cc1
Completion: F

Prompt: Recorded test outcome, item CC(=O)C1CCOC1=O (stereo not given)
Completion: F

Prompt: Field: outcome | Entry: COc1cc(OC)c(OC)cc1C=O
Completion: F

Prompt: Tell me the recorded outcome of this test for CCN[C@@H](C)Cc1ccccc1 .
Completion: F

Prompt: For COc1cc(CCN)cc(OC)c1OC , what call appears in the results of this test?
Completion: F

Prompt: Per the records of this test, what outcome belongs to NC1=NC(=O)C(c2ccccc2)O1 (stereo not given) ?
Completion: F

###

system: HaCat; experiment: Cytotoxic Profiling of Annotated Libraries Using Quantitative High-Throughput Screening (AID 1296008); conditions: Five cell lines viability, CellTiter-Glo ATP luminescence, 48-72 h; active compounds read low; further: on the % scale 0 is the no-effect control and ±100 the full control effect; nearly all actives have a fitted effect of over 60% in size
Results filed as inconclusive are left out.
ENDPOINT LABEL: max response (%)
Write the answer as a number in %, unit excluded.

So, NC(=O)CS(=O)C(c1ccccc1)c1ccccc1 (stereo not drawn) ? Its max response was -6.49

Item: c1ccc2c(c1)sc1ccccc12 | max response: -3.8

# compound COC(=O)[C@@H](N)CCCN/C(N)=N/[N+](=O)[O-] ; its max response = -19.5

What the record says about [N-]=[N+]=CC(=O)OC[C@H](N)C(=O)O : max response is -3.83

The recorded max response for entry CCN(CC)CCc1c[nH]c2ccccc12 equals -3.07

Just so you know, measured max response for CC(C)C[C@H](CN)CC(=O)O came out at -0.0678

Reported max response ( CN(C)CCc1c[nH]c2cccc(OP(=O)(O)O)c12 ) = 4.32

The compound listed as Nc1ccc([As](=O)(O)O)cc1 shows max response equal to -3.33

For reference, reported max response for CC(NC(C)(C)C)C(=O)c1cccc(Cl)c1 (stereo not drawn) stands at -7.82

The value of max response measured for the compound NCCc1ccc(O)cc1 turned out to be 1.28

The recorded max response for CC(C)(C)NCC(O)c1cc(Cl)c(N)c(C(F)(F)F)c1 (stereo not drawn) is -13.5

Lab note: CCC(CC)(CNC(=O)CCCO)c1cccc(OC)c1 gave max response of -1.8

// CC(C)N(CCC(C(N)=O)(c1ccccc1)c1ccccn1)C(C)C (stereo not drawn) : max response value = -27.6

###

test: qHTS of pediatric cancer cell lines to identify multiple opportunities for drug repurposing: Primary screen for Rh18 cells (AID 1347102); settings: Rh18 rhabdomyosarcoma viability, CellTiter-Glo luminescence, 48 h; series mostly up to 46 µM; further: on the % scale 0 is the no-effect control and ±100 the full control effect; nearly all actives have a fitted effect of over 65% in size
Records with an inconclusive call do not appear. Activity calls are given as the source filed them. Calls come from the whole dose curve; as a rule, active = well fitted cell-killing curve with a large enough effect; inconclusive = small, poorly fitted or top-dose-only effect; inactive = flat fitted curve, though single readings scatter.
ENDPOINT LABEL: outcome

outcome in this record for NC(=O)CS(=O)C(c1ccccc1)c1ccccc1 (centres undefined) : inactive

Measured outcome of CN(C)CCc1c[nH]c2cccc(OP(=O)(O)O)c12 : inactive

The value of outcome measured for the compound CN1C(=O)NC(=O)C(C)(C2=CCCCC2)C1=O (centres undefined) turned out to be inactive

The recorded outcome for C[C@]12CC[C@H]3[C@@H](CCC4=CC(=O)CC[C@@H]43)[C@@H]1CC[C@@H]2OC(=O)CCc1ccco1 is inactive

Recorded outcome (compound C[C@]12CCC(=O)C=C1CC[C@@H]1[C@H]3CC[C@](C)(O)[C@@]3(C)CC[C@@H]12 ): inactive

Noted for C[C@@H](N)[C@@H](O)c1ccccc1 : its outcome reads inactive

Summary for this compound, Clc1ccccc1N1CCNCC1 : outcome is inactive

Documented outcome of CC(NC(C)(C)C)C(=O)c1cccc(Cl)c1 (centres undefined) : inactive

---
Briefly, outcome measured for COC1CC(=C(c2cccs2)c2cccs2)C[N+](C)(C)C1 (centres undefined) : inactive

Per the records, this compound ( COc1cc(CCN)cc(OC)c1OC ) has outcome equal to inactive

GET /value?item= CNC(C)(C)Cc1ccccc1 &field=outcome returns inactive

Note to self: outcome recorded for CCN(CC)C(=O)[C@@H]1C=C2c3cccc4[nH]cc(c34)C[C@H]2N(C)C1 was inactive

Per the records, this compound ( C[C@]12CCC(=O)C=C1CC[C@@H]1[C@@H]2CC[C@@]2(C)[C@H]1CC[C@]2(C)O ) has outcome equal to inactive
